Test system: L1210
Experiment: Cytotoxic concentration required to reduce rate of L1210 cell proliferation after 48 hr
Format: functional, cell-based
Conditions: Mus musculus, L1210, 48 h
Here, each record is paired with measured pIC50 data.
Units for pIC50: none; it is -log10 of a concentration expressed in mol/L.

- Nc1nc(N)c2[nH]nc([C@@H]3O[C@H](CO)[C@@H](O)[C@H]3O)c2n1: 4.51
- Nc1nc(N)c2[nH]nc([C@@H]3O[C@H](CO)[C@@H](O)[C@H]3O)c2n1.OC[C@H]1O[C@@H](n2cnc3c2NC=NC[C@H]3O)C[C@@H]1O: 5.30
- Nc1ncnc2c([C@@H]3O[C@H](CO)[C@@H](O)[C@H]3O)[nH]nc12 [FORMYCIN]: 6.00
- Nc1nc(F)nc2c([C@@H]3O[C@H](CO)[C@@H](O)[C@H]3O)n[nH]c12.OC[C@H]1O[C@@H](n2cnc3c2NC=NC[C@H]3O)C[C@@H]1O: 4.66
- Nc1ncnc2c([C@@H]3O[C@H](CO)[C@@H](O)[C@H]3O)n[nH]c12.OC[C@H]1O[C@@H](n2cnc3c2NC=NC[C@H]3O)C[C@@H]1O: 6.70

Item Nc1nc(F)nc2c([C@@H]3O[C@H](CO)[C@@H](O)[C@H]3O)n[nH]c12 has what recorded pIC50?
4.92
